Each record here notes measured pIC50.
# measured-target: FAAH (Homo sapiens (Human), UniProt O00519)
# Sequence (O00519 whole entry): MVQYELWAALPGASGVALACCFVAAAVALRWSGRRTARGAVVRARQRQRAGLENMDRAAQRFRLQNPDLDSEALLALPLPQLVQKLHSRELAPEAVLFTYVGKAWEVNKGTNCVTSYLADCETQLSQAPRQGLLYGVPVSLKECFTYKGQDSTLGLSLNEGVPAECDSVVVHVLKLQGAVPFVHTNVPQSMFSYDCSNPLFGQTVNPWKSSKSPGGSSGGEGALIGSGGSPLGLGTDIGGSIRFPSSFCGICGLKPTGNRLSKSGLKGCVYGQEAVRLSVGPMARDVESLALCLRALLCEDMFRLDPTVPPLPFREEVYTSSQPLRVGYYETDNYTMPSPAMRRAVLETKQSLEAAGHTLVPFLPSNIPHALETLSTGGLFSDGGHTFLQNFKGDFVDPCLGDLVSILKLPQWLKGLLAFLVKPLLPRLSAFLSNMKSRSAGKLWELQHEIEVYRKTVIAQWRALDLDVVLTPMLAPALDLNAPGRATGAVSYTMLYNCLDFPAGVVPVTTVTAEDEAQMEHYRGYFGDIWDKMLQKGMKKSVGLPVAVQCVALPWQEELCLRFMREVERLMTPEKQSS
# test-details: FAAH activity: hydrolysis of [3H]-AEA in U937 cell homogenates
# Type: biochemical
# conditions-used: Table 4; U937 cell homogenate; read-out: FAAH inhibition IC50
pIC50: −log10 of the molar value.

chemical-smiles: C/C=C/c1cc(/C=C2\S/C(=N\c3ccccc3)N(CCOC)C2=O)cc(OCC)c1O
inequality-operator: <
pIC50: 4.00

chemical-smiles: CCOc1cc(/C=C2\S/C(=N\c3ccc(F)cc3)N(c3ccc(F)cc3)C2=O)ccc1O
inequality-operator: =
pIC50: 4.25

chemical-smiles: COc1ccc(/C=C2\S/C(=N\c3ccc(OC)cc3)N(c3ccc(OC)cc3)C2=O)cc1
inequality-operator: =
pIC50: 4.69

chemical-smiles: COc1cc(/C=C2\S/C(=N\c3ccccc3)N(c3ccccc3)C2=O)ccc1O
inequality-operator: =
pIC50: 4.57

chemical-smiles: Cc1ccc(/N=C2\S/C(=C\c3ccc(O)c(Cl)c3)C(=O)N2c2ccc(C)c(Cl)c2)cc1Cl
inequality-operator: =
pIC50: 4.23
